test system: SNB-19 CNS; assay: NCI-60 one-dose screen, 48 h (100 = growth as untreated, 0 = no growth, -100 = all killed); settings: 10 µM unless noted
This is part of a sample that, as a whole, favours compounds with a hit. Of some 83,000 tested, about 20% had one in any assay.
quantity name: growth (%)
Write the value in % as a bare number.

compound: C[C@H]1[C@H]2[C@H]3CC[C@@H]4[C@@]5(C)CC[C@H](O)C(C)(C)[C@@H]5CC[C@@]4(C)[C@]3(C)CC[C@]23CO[C@]1(C)[C@@H](C(=O)/C=C\c1cccnc1)C3
experimental target: SNB-19 CNS
growth (%): 71.6
//
compound: CCC12CCC[N+]3([O-])CCC4(C(=Nc5ccccc54)C(O)(C(=O)OC)C1)C23 (centres undefined)
experimental target: SNB-19 CNS
growth (%): 102
//
compound: O=C1/C(=C/c2ccccc2[N+](=O)[O-])Oc2ccc(O)c(O)c21
experimental target: SNB-19 CNS
growth (%): 70.3

Report growth for CCOC(=O)C1=C(N)Oc2c(sc3c(C)cccc23)C1c1ccc(Cl)cc1 (centres undefined) please.
28.1
